# Assay explanation: Permeability
# Type: in vitro ADME
# Cond: human, Caco-2
Recorded metric: Papp at 24 h (×10⁻⁶ cm/s)
Numbers only, in ×10⁻⁶ cm/s.

O=C1[C@H](CC[C@H](O)c2ccc(F)cc2)[C@@H](c2ccc(O)cc2)N1c1ccc(F)cc1 [EZ, ezetimibe, reference compound] | 2.94
O=C(/C=C/c1ccc(O)c(O)c1)O[C@H](Cc1ccc(O)c(O)c1)C(=O)O [RA, rosmarinic acid] | 1.68

Proceed to the following item.
Field Papp at 24 h (entry O=C(/C=C/c1ccc(O)c(O)c1)O[C@@H]1C[C@](O)(C(=O)O)C[C@@H](O)[C@H]1O [ChA, chlorogenic acid] ) reads 1.38

###

# Assay explanation: MTT cytotoxicity on Caco-2 cell line
# Assay type: cell-based
# Cond: human, Caco-2 cells
Recorded metric: IC50 at 24 h (µM)
Answers are plain numbers, in µM.

Field IC50 at 24 h (entry O=C1[C@H](CC[C@H](O)c2ccc(F)cc2)[C@@H](c2ccc(O)cc2)N1c1ccc(F)cc1 [EZ, ezetimibe, reference compound] ) reads 228
